Target: h-Sortilin (Homo sapiens (Human), UniProt Q99523)
Sequence (Q99523 78-831): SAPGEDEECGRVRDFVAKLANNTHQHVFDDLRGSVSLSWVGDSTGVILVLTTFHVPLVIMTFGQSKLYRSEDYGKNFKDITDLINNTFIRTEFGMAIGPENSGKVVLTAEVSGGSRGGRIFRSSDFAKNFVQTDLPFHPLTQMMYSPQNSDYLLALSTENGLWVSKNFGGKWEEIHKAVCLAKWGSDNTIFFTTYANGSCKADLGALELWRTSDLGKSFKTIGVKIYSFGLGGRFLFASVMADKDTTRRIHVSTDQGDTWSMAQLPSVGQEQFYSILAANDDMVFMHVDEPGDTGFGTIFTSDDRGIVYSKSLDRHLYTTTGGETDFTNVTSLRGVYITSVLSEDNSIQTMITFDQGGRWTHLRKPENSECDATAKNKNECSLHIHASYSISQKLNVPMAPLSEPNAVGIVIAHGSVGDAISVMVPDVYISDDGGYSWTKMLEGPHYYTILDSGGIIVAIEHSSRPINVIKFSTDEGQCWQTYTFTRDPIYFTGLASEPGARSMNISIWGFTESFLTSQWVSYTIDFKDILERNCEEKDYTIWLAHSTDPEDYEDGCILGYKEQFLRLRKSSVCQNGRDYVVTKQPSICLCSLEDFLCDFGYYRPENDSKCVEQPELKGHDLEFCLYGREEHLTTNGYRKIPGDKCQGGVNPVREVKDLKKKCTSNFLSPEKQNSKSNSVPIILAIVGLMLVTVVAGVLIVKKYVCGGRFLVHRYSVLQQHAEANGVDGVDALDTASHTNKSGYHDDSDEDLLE
hey, just use Condition met if measured IC50 is less than 0.4 µM, otherwise Condition not met

> print(dat)
                                   molecule                             tested.system          label
1  CC(C)(C)CC[C@H](NC(=O)N1CCOCC1)C(=O)O [Example 4]  h-Sortilin (Homo sapiens (Human), UniProt Q99523)  Condition met

**Query** Hi there! Is IC50 for CC(C)(C)CC[C@H](NC(=O)OCc1ccccc1)C(=O)O [Example 3] below 0.4 µM, do you know?
**Result** Condition not met

**Query** Hi there! Is IC50 for CC(C)(C)CC[C@H](NC(=O)N1CCCOCC1)C(=O)O [Example 5] below 0.4 µM, do you know?
**Result** Condition met

**Query** Hi there! Is IC50 for CC(C)(C)CC[C@H](NC(=O)NCc1ccccc1)C(=O)O [Example 1] below 0.4 µM, do you know?
**Result** Condition met

**Query** Hi there! Is IC50 for CN(Cc1ccccc1)C(=O)N[C@@H](CCC(C)(C)C)C(=O)O [Example 2] below 0.4 µM, do you know?
**Result** Condition not met
